Values compiled from ChEMBL document CHEMBL3988442.

- System: Trypanosoma cruzi
- assay-comment: Trypanosoma cruzi phosphomannomutase and mannose-1-phosphate guanylyltransferase assay
- Type: functional
- Design: scale not given: direction of the effect not stated beside the values
- conditions: 10 µM
Entries and their Percent Effect values follow.
Give the value, in units of %, as a plain number.

>>> print(df.to_string())
                                   compound  unit_of_measurement  experimental_result
0  Cc1noc(C2CCN(Cc3cc(=O)n(C)c(=O)n3C)CC2)n1                    %                0.602
1          CCOCC(=O)N1CCC(Oc2ccc(Cl)cn2)CC1                    %               -0.888
2  CC(C)NC(=O)C1CN(C(=O)c2ccco2)CC12CCOCC2 (stereo unspecified)                    %                 3.41

input: # Percent Effect lookup, item Cn1nc2c(cc1=O)CN(Cc1nnc(-c3ccc(F)cc3)o1)CC2
output: -6.48

input: # Percent Effect lookup, item CCC1=N[C@@]2(CC[C@@H]3CN(C(=O)NCc4ccccc4)C[C@@H]32)C(=O)N1C
output: -3.02

input: # Percent Effect lookup, item Cn1cc(CN2C[C@@H]3COC[C@]3(CNC(=O)c3ccsc3)C2)cn1
output: -3.6

---

- target-of-assay: Sialic acid-binding Ig-like lectin 9 (Homo sapiens)
- assay-comment: Hs-Siglec9 ALPHAscreen SOP 20170721
- Parameters: scale not given: direction of the effect not stated beside the values
- conditions: 10 µM
result-type: Percent Effect (%)
Give the value, in units of %, as a plain number.

# example entries with known answers
>>> df
                                   compound     result_type  experimental_result
0  CNC(=O)CS(=O)(=O)Cc1coc(-c2ccc(OC)cc2)n1  Percent Effect                -2.16
1  CCNC(=O)NC(=O)CSC(C)c1ccccc1F (stereo not drawn)  Percent Effect                 16.2

input: # Percent Effect lookup, item CCc1nc(C2CCCN(C(=O)c3ccc4c(c3)nnn4C)C2)no1 (stereo not drawn)
output: -5.84

---

- target-of-assay: Protein translocase subunit SecA (Escherichia coli (strain K12))
- assay-comment: Assay to Identify E. coli SecA ATPase Inhibitors
- Format: functional
- Parameters: scale not given: direction of the effect not stated beside the values
- conditions: 30 µM
Results with a measured potency or affinity are listed apart.
result-type: Percent Effect (%)
Give the value, in units of %, as a plain number.

# example entries with known answers
>>> df
                                   molecule                           target_of_assay  unit_of_measurement  experimental_result
0  CCOC(=O)CN1CCC2(CC1)CC(=O)c1ccc(OC)cc1O2  Protein translocase subunit SecA (Escherichia coli (strain K12))                    %                -2.51
1  Cc1ccc(C2C3=C(COC3=O)Nc3[nH]nc(C)c32)cc1C (configuration not stated)  Protein translocase subunit SecA (Escherichia coli (strain K12))                    %                -2.97
2   c1ccc2cc(OCCN3CCn4c(nnc4C4CC4)C3)ccc2c1  Protein translocase subunit SecA (Escherichia coli (strain K12))                    %                -5.63
3  CS(=O)(=O)N1CCOCC2(CN(Cc3ccco3)CCO2)C1 (configuration not stated)  Protein translocase subunit SecA (Escherichia coli (strain K12))                    %                -1.05
4     CN(C)[C@H]1CCCCN(C(=O)CCc2csc(N)n2)C1  Protein translocase subunit SecA (Escherichia coli (strain K12))                    %                -6.59

input: Under Protein translocase subunit SecA (Escherichia coli (strain K12)): Percent Effect value of CN1CCC/C1=N\S(=O)(=O)c1ccc(NC(=O)c2ccc(F)cc2)cc1 ?
output: 1.02

input: Under Protein translocase subunit SecA (Escherichia coli (strain K12)): Percent Effect value of CC(C)c1ncc2c(n1)CN(Cc1cccc(OCC(N)=O)c1)CC2 ?
output: -3.71

input: Under Protein translocase subunit SecA (Escherichia coli (strain K12)): Percent Effect value of Cc1nn(C)c(Cl)c1C(=O)NCC(c1ccsc1)N(C)C (configuration not stated) ?
output: -3.36

input: Under Protein translocase subunit SecA (Escherichia coli (strain K12)): Percent Effect value of CC(C)N1CC(C(=O)NCc2ccnc(-n3cccn3)c2)CC1=O (configuration not stated) ?
output: -1.72

input: Under Protein translocase subunit SecA (Escherichia coli (strain K12)): Percent Effect value of CC(CCc1ccccc1)NC(=O)Nc1cnn(CC(N)=O)c1 (configuration not stated) ?
output: -2.21

input: Under Protein translocase subunit SecA (Escherichia coli (strain K12)): Percent Effect value of CCn1ccnc1CN1CCC(N(C)Cc2ncc(C)o2)C1 (configuration not stated) ?
output: -0.494

input: Under Protein translocase subunit SecA (Escherichia coli (strain K12)): Percent Effect value of CC(=O)NCC(=O)N1CCOC2(CCCN(c3cccnc3)C2)C1 (configuration not stated) ?
output: -5.02

---

- Organism: Homo sapiens
- assay-comment: To identify inhibition of the IFN signalling (Jak-Stat) pathway via expression of an eGFP reporter gene under the control of an IFN-stimulated response element (ISRE) containing MxA promoter.
- Type: functional
- Parameters: scale not given: direction of the effect not stated beside the values
- conditions: 30 µM
result-type: Percent Effect (%)
Give the value, in units of %, as a plain number.

>>> print(df.to_string())
                                   molecule     result_type  unit_of_measurement  experimental_result
0  O=C(NCCOc1ccc2c(c1)CCC2)N1CCS(=O)(=O)CC1  Percent Effect                    %                 23.2
1  CCOCC1CN(Cc2cnn(C)c2)Cc2ncn(CC3CC3)c21 (stereo not drawn)  Percent Effect                    %                 10.9

input: # Percent Effect lookup, item c1ccc(CCNC2CCc3ncnn3C2)nc1 (stereo not drawn)
output: 8.49

---

- target-of-assay: Arginase-2, mitochondrial (Homo sapiens) (UniProt P78540)
- Sequence (P78540 whole entry): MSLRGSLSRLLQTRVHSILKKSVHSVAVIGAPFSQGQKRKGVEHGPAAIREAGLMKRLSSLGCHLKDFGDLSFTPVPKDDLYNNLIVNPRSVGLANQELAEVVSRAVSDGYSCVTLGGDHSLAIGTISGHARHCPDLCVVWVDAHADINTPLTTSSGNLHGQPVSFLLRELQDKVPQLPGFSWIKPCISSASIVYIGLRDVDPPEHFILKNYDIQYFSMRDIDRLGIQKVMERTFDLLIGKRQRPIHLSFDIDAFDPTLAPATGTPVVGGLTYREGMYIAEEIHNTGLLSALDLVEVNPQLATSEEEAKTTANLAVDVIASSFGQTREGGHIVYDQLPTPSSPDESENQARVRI
- assay-comment: in vitro enzyme assay to detect the production of urea directly proportional to the activity of Arginase II; note: in the data most compounds retested in dose-response had high values
- Format: functional
- Design: scale not given: direction of the effect not stated beside the values
- conditions: 33.3 µM
result-type: Percent Effect (%)
Give the value, in units of %, as a plain number.

                               molecule                           target_of_assay     result_type  experimental_result
0  CCN(C)S(=O)(=O)N(CC)Cc1ccc2c(c1)OCO2  Arginase-2, mitochondrial (Homo sapiens) (UniProt P78540)  Percent Effect                 1.42
1  NC(=O)N1CCC2(CC1)CN(c1ccsc1)C(=O)CO2  Arginase-2, mitochondrial (Homo sapiens) (UniProt P78540)  Percent Effect                -3.96

input: # Percent Effect lookup, item c1ccc(-c2cnc(CNC3CCCN(c4cccnn4)C3)o2)cc1 (stereo not given)
output: 1.23

input: # Percent Effect lookup, item CN(C)CC1(O)CCN(S(=O)(=O)c2ccc(F)c(F)c2)C1 (stereo not given)
output: -3.48

input: # Percent Effect lookup, item COc1ccc(OCCc2sc(C3(O)CCCNCC3)nc2C)cc1 (stereo not given)
output: -6.73

---

- target-of-assay: Sialic acid-binding Ig-like lectin 9 (Homo sapiens) (UniProt Q9Y336)
- Sequence (Q9Y336 whole entry): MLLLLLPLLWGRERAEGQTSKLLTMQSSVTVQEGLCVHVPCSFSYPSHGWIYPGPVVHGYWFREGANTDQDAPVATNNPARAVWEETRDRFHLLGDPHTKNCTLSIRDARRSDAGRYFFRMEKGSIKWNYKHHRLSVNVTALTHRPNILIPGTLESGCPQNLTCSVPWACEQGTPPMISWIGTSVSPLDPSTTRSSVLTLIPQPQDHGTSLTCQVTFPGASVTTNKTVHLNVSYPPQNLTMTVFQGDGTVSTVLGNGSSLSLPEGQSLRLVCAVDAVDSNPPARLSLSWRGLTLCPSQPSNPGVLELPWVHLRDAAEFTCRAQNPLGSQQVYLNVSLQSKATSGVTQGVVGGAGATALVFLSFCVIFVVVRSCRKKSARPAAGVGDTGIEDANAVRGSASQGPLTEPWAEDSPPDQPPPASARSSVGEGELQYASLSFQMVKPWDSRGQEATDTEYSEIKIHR
- assay-comment: Hs-Siglec9 ALPHAscreen SOP 20170721
- Design: scale not given: direction of the effect not stated beside the values
- conditions: 10 µM
result-type: Percent Effect (%)
Give the value, in units of %, as a plain number.

>>> print(df.to_string())
                                   compound  unit_of_measurement  experimental_result
0  CCOCC(O)CN1CCN(C(=O)c2ccccc2Cl)CC1 (stereo not drawn)                    %                 2.24

input: # Percent Effect lookup, item Cn1cc(CN2CC[C@@H]3[C@@H](CCC(=O)N3CCC3=CCCCC3)C2)cn1
output: 0.26

input: # Percent Effect lookup, item CCc1ccc(C(=O)N2CCC(c3nncn3CC)CC2)cc1
output: -0.88

input: # Percent Effect lookup, item COc1cc(CNC(=O)C2CC(=O)N(C(C)C)C2)ccn1 (stereo not drawn)
output: -1.27

input: # Percent Effect lookup, item CN(Cc1ccc2c(c1)OCCO2)C(=O)Cn1cccnc1=O
output: -2.28

input: # Percent Effect lookup, item CCN1C[C@@H]2[C@@H](OC)CCN(S(=O)(=O)c3ccccc3F)[C@@H]2C1
output: 0.304

input: # Percent Effect lookup, item CCCN(C(=O)c1ccccn1)c1nc2c(s1)CCc1c-2cnn1C
output: 3.48

input: # Percent Effect lookup, item CC(C)CCC(=O)NC(C)c1nnc2n1CCCCC2 (stereo not drawn)
output: 4.23

input: # Percent Effect lookup, item Cc1nnc(CN2CCCC(c3cc(C(N)=O)[nH]n3)C2)o1 (stereo not drawn)
output: 11.5

input: # Percent Effect lookup, item Cc1cn2c(n1)CCC(NC(=O)CCn1cncn1)C2 (stereo not drawn)
output: -5.36

input: # Percent Effect lookup, item Cc1ccc(OCC(=O)NS(=O)(=O)c2c(C)noc2C)cc1C
output: -10.8

input: # Percent Effect lookup, item O=C(c1ccc[nH]1)N1CCC2(CC1)C(=O)Nc1ccccc12
output: 18

input: # Percent Effect lookup, item COc1ccc(CC(=O)NC2(C)CCS(=O)(=O)C2)cc1F (stereo not drawn)
output: -4.85
